Test system: LOX IMVI
Assay: NCI tumour cell line growth inhibition, 48 h
Calls of active or inactive are those of the source. No stated cut-off is given here; in the data, active = GI50 up to about 1.1 µM and inactive = higher.
Provide the reported GI50 of each item.

Q: Tell me the measured GI50 of Cn1c2ccccc2c2cc(N3CCCC3)c3c(c21)C(=O)N(c1ccccc1)C3=O , please.
Result: > 100 µM (inactive)

Q: Tell me the measured GI50 of CC(CO)C1=CC(C#CCOCc2ccccc2)N(C(=O)Oc2ccccc2)c2ccccc21 (stereo not given) , please.
Result: 33.5 µM (inactive)

Q: Tell me the measured GI50 of CC(C)/C(Cl)=N\OC(=O)Nc1ccc(S(N)(=O)=O)cc1 , please.
Result: 2.89 µM (inactive)

Q: Tell me the measured GI50 of COC1=CC(=O)C2(C=C1OC)OC[C@H]1Oc3c(ccc4c3C=CC(C)(C)O4)C(=O)[C@H]12 (stereo not given in full) , please.
Result: 78.9 µM (inactive)

Q: Tell me the measured GI50 of COc1cccc2c1C1=CC(=O)CCC1C(C)(C)O2 (stereo not given) , please.
Result: 35.7 µM (inactive)

Q: Tell me the measured GI50 of CC(=O)c1csc2c1C(=O)c1scc(C(C)=O)c1C2=O , please.
Result: 1.41 µM (inactive)

Q: Tell me the measured GI50 of COc1ccc(-c2nc(SCC(=O)N/N=C/c3ccc(N(C)C)cc3)[nH]c2-c2ccc(OC)cc2)cc1 , please.
Result: 92.9 µM (inactive)

Q: Tell me the measured GI50 of CC(=O)N1N(c2ccc([N+](=O)[O-])cc2)C(=O)C1(C)C , please.
Result: 11.6 µM (inactive)

Q: Tell me the measured GI50 of COc1ccc2cc3c4cc5c(cc4cc[n+]3cc2c1OC)OCO5 , please.
Result: 28.4 µM (inactive)

Q: Tell me the measured GI50 of COc1ccc(C(=C(C#N)C#N)c2ccc(OC)cc2)cc1 , please.
Result: > 100 µM (inactive)

Just for reference, ChEMBL document CHEMBL1201862 is where these values come from.
